Target: T1, human APJ (transfected HEK293 cells, Gαi1 BRET assay) (human, UniProt P35414 1-380)
T1 sequence (looked up): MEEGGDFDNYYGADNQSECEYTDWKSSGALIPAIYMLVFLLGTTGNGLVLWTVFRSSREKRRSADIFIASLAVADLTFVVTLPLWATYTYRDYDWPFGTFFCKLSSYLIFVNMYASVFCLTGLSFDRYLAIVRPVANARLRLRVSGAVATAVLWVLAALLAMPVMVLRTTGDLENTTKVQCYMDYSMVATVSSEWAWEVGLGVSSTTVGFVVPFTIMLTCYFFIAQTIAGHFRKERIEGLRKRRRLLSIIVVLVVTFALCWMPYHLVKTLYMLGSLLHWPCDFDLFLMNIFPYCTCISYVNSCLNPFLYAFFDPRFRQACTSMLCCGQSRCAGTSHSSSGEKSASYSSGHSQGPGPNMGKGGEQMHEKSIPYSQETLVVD
Protocol notes: cell-based or functional assay
Bridge positions count the residues as written; N and C are the ends. Square brackets hold non-standard residues; d marks the D form. Ends that are not written are not given here. Alnb = Nγ-allyl-Nγ-nosyl-α,γ-diamino-butanoic acid; d1Nal = N[C@H](Cc1cccc2ccccc12)C(=O)O; AllylGly = C=CC[C@H](N)C(=O)O; pGlu = O=C1CC[C@@H](C(=O)O)N1; Nle = CCCC[C@H](N)C(=O)O
Listing of entries alongside the reported Gαi1 Emax (%).
Answer format: number, then unit.

- Binder: "[pGlu]R[AllylGly]RLS[Alnb]KGP[Nle]PF (staple 3-7) [Compound 16 (KT01-123)]"
  Gαi1 Emax (%): "102%"
- Binder: "H-[AllylGly]RLS[AllylGly]KGP[dY] (staple 1-5) [Compound 45 (KT04-42b)]"
  Gαi1 Emax (%): "100%"
- Binder: "H-[AllylGly]RLS[AllylGly]KGP[d1Nal] (staple 1-5) [Compound 42 (KT04-43)]"
  Gαi1 Emax (%): "103%"
- Binder: "H-[AllylGly]RLS[AllylGly]KGP[Nle]PF (staple 1-5) [Compound 20 (KT01-100)]"
  Gαi1 Emax (%): "100%"
- Binder: "[pGlu]R[AllylGly]RLS[AllylGly]KGP[Nle]PF (staple 3-7) [Compound 97]"
  Gαi1 Emax (%): "101%"

Q: Query Gαi1 Emax (%) for H-[AllylGly]RLS[Alnb]KGP[Nle]PF (staple 1-5) [Compound 28 (KT01-135)]
A: 106%

Q: Determine its reported Gαi1 Emax (%): Guanidine-[AllylGly]RLS[AllylGly]KGP[Nle]PF (staple 1-5) [Compound 23 (KT01-121)]
A: 103%
